- System Under Test: T1, human VEGF-A residues 27-191 of Accession #AAV38412 (human, UniProt P15692 27-191)
- T1 construct: range 27-191
- T1 sequence (P15692 other isoform, or with tags, fused parts or gaps limits assumed): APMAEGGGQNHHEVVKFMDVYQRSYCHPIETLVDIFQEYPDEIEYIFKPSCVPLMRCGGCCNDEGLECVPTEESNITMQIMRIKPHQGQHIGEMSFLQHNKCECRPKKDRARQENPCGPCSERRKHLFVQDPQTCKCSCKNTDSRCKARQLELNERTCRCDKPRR
- Procedure Summary: BIAcore SPR
Parameter: koff. Scope: all listed entries.
Parameter Measured: koff (s⁻¹)

{"Binder": "N31 L (anti-VEGF IgG) (antibody, V domains shown, copies: 2 + 2) VH: EVQLVESGGGLVQPGGSLRLSCAASGYTFTLYGMNWVRQAPGKGLEWVGWINTYTGEPTYAADFKRRFTFSLDTSKSTAYLQMNSLRAEDTAVYYCAKYPHYYGSSHWYFDVWGQGTLVTVSS VL: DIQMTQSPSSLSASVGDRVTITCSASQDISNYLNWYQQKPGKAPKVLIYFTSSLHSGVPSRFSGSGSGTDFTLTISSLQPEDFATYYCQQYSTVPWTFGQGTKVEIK", "Recorded Measurement": "6.05e-05"}
{"Binder": "S100a Q (anti-VEGF IgG) (antibody, V domains shown, copies: 2 + 2) VH: EVQLVESGGGLVQPGGSLRLSCAASGYTFTNYGMNWVRQAPGKGLEWVGWINTYTGEPTYAADFKRRFTFSLDTSKSTAYLQMNSLRAEDTAVYYCAKYPHYYGQSHWYFDVWGQGTLVTVSS VL: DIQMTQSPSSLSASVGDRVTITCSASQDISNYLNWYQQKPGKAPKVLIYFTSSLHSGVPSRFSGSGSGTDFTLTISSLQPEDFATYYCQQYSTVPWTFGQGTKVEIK", "Recorded Measurement": "6.04e-05"}
{"Binder": "S100a T (anti-VEGF IgG) (antibody, V domains shown, copies: 2 + 2) VH: EVQLVESGGGLVQPGGSLRLSCAASGYTFTNYGMNWVRQAPGKGLEWVGWINTYTGEPTYAADFKRRFTFSLDTSKSTAYLQMNSLRAEDTAVYYCAKYPHYYGTSHWYFDVWGQGTLVTVSS VL: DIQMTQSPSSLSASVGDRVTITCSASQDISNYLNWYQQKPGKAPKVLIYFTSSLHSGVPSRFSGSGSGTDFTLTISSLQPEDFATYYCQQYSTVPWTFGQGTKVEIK", "Recorded Measurement": "4.15e-05"}
